The measurements presented in this section are drawn from PubChem BioAssay.

- targetDesc: Voltage-gated potassium channel subunit beta-2 (Rattus norvegicus) (UniProt P62483)
- Sequence (P62483 whole entry, looked up): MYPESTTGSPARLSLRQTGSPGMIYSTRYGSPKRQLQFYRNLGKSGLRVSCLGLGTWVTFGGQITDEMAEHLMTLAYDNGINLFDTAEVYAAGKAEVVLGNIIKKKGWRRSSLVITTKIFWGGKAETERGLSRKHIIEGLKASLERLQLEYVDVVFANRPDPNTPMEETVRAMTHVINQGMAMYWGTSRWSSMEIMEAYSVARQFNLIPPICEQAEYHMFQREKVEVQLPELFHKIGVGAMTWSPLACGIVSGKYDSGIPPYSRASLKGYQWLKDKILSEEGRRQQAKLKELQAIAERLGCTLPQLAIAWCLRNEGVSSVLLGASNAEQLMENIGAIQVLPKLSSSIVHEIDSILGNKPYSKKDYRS
- methodNotes: KvBeta enzyme negative modulators, primary screen, biochemical, NADPH fluorescence (AID 622);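 note: slope of raw intensity against log time taken from 70 to 1610 s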
- conditionDescription: recombinant KvBeta, 4-cyanobenzaldehyde reduction, at 10 µM, active compounds read high
measuredQuantity: fluorescence slope
Lab note: record the figure alone, no unit after it.

Guide cases for fluorescence slope, answers given:
• Cc1cc(C(=O)NCc2cccnc2)n(-c2ccccc2)n1 = -0.546
• CCCCCc1c(C)nc(Nc2nc(C)c3cc(OC)ccc3n2)[nH]c1=O = -0.598
• COc1ccc(CN(C)CCc2ccccn2)c(OC)c1OC = -0.419

Q: GET /values?readout=fluorescence slope&item= "COc1ccc(CCNc2oc(COc3ccccc3)nc2C#N)cc1"
Ans: -0.409

Q: Param item: "CCN(CC)CCn1c(OC)cc(=O)[nH]c1=O"
Ans: -0.503

Q: Param item: CCOC(=O)C1(CC)NC(c2cccc(F)c2)C2C(=O)N(CC)C(=O)C21 (stereo not drawn)
Ans: -0.476

Q: Param item: "CCC(=O)Nc1nc2ccccc2n1CCN(C)C"
Ans: -0.436

Q: Param item: "CCOC(=O)c1cnn2c1[nH]c(=O)c1ccccc12"
Ans: -0.378

Q: Param item: "Cc1cccc(OCCNC(=O)c2ncn[nH]2)c1"
Ans: -0.443

Q: Param item: CCCCc1nc(NCC2CCCO2)c(C#N)c2c1COC(C)(C)C2 (stereo not drawn)
Ans: -0.509
